Test system: velvetleaf
Assay: Test A pre-/postemergence herbicide test
Assay type: in vivo, Abutilon theophrasti
Details: Postemergence, 125 g ai/ha; 0 to 100 scale, 0 no effect, 100 complete control
assayEndpoint: Plant response rating, Velvetleaf
Hey, just send me the number, nothing else.

Request: Can you share its Plant response rating, Velvetleaf? I mean this molecule: O=C1NCC(c2ccc(F)c(C(F)(F)F)c2)C1C(=O)Nc1ccccc1C(F)(F)F (racemic)
Response: 20

Request: Cool, now O=C1NCC(c2ccc(F)c(F)c2)C1C(=O)Nc1ccccc1Br (centres unmarked)
Response: 0

Request: Item: O=C1NCC(c2ccc(F)c(F)c2)C1C(=O)Nc1ccc[nH]c1=O (racemic)
Response: 0

Request: Follow-up entry: CC1NC(=O)C(C(=O)Nc2ccccc2F)C1c1ccc(F)c(F)c1 (mixture of isomers)
Response: 0

Request: One more molecule: O=C1NCC(c2cccc(OC(F)(F)F)c2)C1C(=O)Nc1cccc(F)c1F (centres unmarked)
Response: 20

Request: // next record O=C1NCC(c2ccc(F)cc2)C1C(=O)Nc1ccccc1F (racemic)
Response: 0

Others:
Request: Request the reported Plant response rating, Velvetleaf associated with N#Cc1ccccc1NC(=O)C1C(=O)NCC1c1ccccc1 (racemic)
Response: 0

Request: Input O=C1NCC(c2ccc(F)c(F)c2)C1C(=O)Nc1cccc(F)c1C(F)(F)F (centres unmarked)
Response: 0

Request: Please give the result for O=C1NCC(c2ccc(Cl)c(F)c2)C1C(=O)Nc1ccccc1F (centres unmarked) too.
Response: 0

Request: What about this molecule? NC1=NCC(c2ccc(F)c(F)c2)C1C(=O)Nc1ccccc1F (centres unmarked)
Response: 0

Request: Continue with COc1ncccc1NC(=O)C1C(=O)NCC1c1ccc(F)c(F)c1 (centres unmarked)
Response: 0

---

Consider the following molecules and their measured Plant response rating, Ducksalad readings.
Test system: ducksalad
Experiment: Test C flooded paddy test
Format: in vivo, Heteranthera limosa
Details: Flood, 62 g ai/ha; scale of 0 to 100 where 0 is no effect and 100 is complete control; 13 to 15 days
Enter a number only.

See these solved cases before continuing.
Request: For the molecule CC1NC(=O)C(C(=O)Nc2ccccc2F)C1c1ccc(F)c(F)c1 (mixture of isomers) [Compound 7] , what Plant response rating, Ducksalad is on record?
Response: 0

Request: Also need CN1CC(c2cccc(C(F)(F)F)c2)C(C(=O)Nc2ccccc2F)C1=O (stereo not shown) , thanks.
Response: 65

Request: // repeat for O=C1NCC(c2ccc(F)cc2)C1C(=O)Nc1ccccc1F (racemic) and report
Response: 40

Request: How about CC1NC(=O)C(C(=O)Nc2ccccc2F)C1c1ccc(F)c(F)c1 (mixture of isomers) [Compound 8] ?
Response: 0

Request: Lookup O=C1NCC(c2cccc(C(F)(F)F)c2)C1C(=O)Nc1ccccc1F (racemic)
Response: 60

Continuing:
Request: Could you share which Plant response rating, Ducksalad value was measured for O=C1NCC(c2ccc(Cl)c(Cl)c2)C1C(=O)Nc1ccccc1C(F)(F)F (racemic) ?
Response: 0

Request: Then Cc1cccc(NC(=O)C2C(=O)NCC2c2cccc(C(F)(F)F)c2)c1 (stereo not shown) ?
Response: 0

---

Tested on: blackgrass
Test: Test C pre-/postemergence herbicide test
Type: in vivo, Alopecurus myosuroides
Details: Postemergence; 250 g ai/ha; scale 0 to 100 (0 no effect, 100 complete control)
Description: […]
// Plant response rating, Blackgrass lookup, one value per entry

Request: Please provide the recorded Plant response rating, Blackgrass for O=C1NCC(c2cccc(Br)c2)C1C(=O)Nc1cccc(F)c1F (stereo not drawn) , tested on blackgrass.
Response: 5

Request: And the next one, O=C1NCC(c2cc(F)c(F)c(F)c2)C1C(=O)Nc1ccccc1F (racemic) ?
Response: 0

Request: Next: O=C1NCC(c2cccc(OC(F)F)c2)C1C(=O)Nc1ccccc1F (stereo not drawn)
Response: 0

Request: And for O=C1NCC(c2cccc(Cl)c2)C1C(=O)Nc1cccc(F)c1F (racemic) ?
Response: 40

Request: # repeat for O=C1NCC(c2ccccc2)C1C(=O)Nc1ccccc1F (racemic)
Response: 0

Next up:
Request: Under blackgrass: Plant response rating, Blackgrass value of O=C1NCC(c2cccc(C(F)(F)F)c2)C1C(=O)Nc1cccc(Cl)c1F (stereo not drawn) ?
Response: 0

---

Tested on: crabgrass, large
Assay: Test C pre-/postemergence herbicide test
Format: in vivo, Digitaria sanguinalis
Conditions: Preemergence, 62 g ai/ha; scale 0 to 100
Documented Plant response rating, Crabgrass, Large across a set of molecules
Reply with the value as a number alone.

Request: For O=C1NCC(c2ccc(Cl)c(F)c2)C1C(=O)Nc1ccccc1F (centres unmarked) , what is its reported Plant response rating, Crabgrass, Large?
Response: 85

Request: Please give the result for O=C1NCC(c2ccc(F)c(C(F)(F)F)c2)C1C(=O)Nc1ccccc1C(F)(F)F (racemic) too.
Response: 98

Request: Same thing, different molecule: O=C1NCC(c2ccc(F)c(C(F)(F)F)c2)C1C(=O)Nc1ccccc1F (racemic)
Response: 98

Request: Try this molecule next: O=C1NCC(c2ccc(F)c(Cl)c2)C1C(=O)Nc1cccc(F)c1F (centres unmarked)
Response: 85

Request: Also, O=C1NCC(c2ccc3c(c2)OC(F)(F)O3)C1C(=O)Nc1cccc(F)c1F (centres unmarked) please.
Response: 90

---

Property: Plant response rating, Ryegrass, Italian; scope: individual compounds
Test system: ryegrass, Italian
Experiment: Test A pre-/postemergence herbicide test
Assay type: in vivo, Lolium multiflorum
Settings: preemergence; 500 g ai/ha; 0 to 100 scale, 0 is no effect and 100 is complete control
Reply with the value as a number alone.

Request: Plant response rating, Ryegrass, Italian of Cc1ccc(C2CNC(=O)C2C(=O)Nc2ccccc2Cl)cc1 (racemic) on ryegrass, Italian?
Response: 30

More entries:
Request: Param readout= Plant response rating, Ryegrass, Italian; system= ryegrass, Italian; entry= O=C1NCC(c2cccc(C(F)F)c2)C1C(=O)Nc1cccc(F)c1F (racemic) ; returns value.
Response: 40

Request: Moving on to the next compound: O=C1NCC(c2ccc(OC(F)F)cc2)C1C(=O)Nc1ccccc1Br (centres unmarked)
Response: 40

Request: How about O=C1NCC(c2ccc(-c3ccccc3F)cc2)C1C(=O)Nc1cccc(F)c1F (centres unmarked) ?
Response: 0

Request: Same lookup for CCc1cccc(C2CNC(=O)C2C(=O)Nc2ccc(F)c(F)c2F)c1 (racemic) , please.
Response: 30

Request: Please answer likewise for O=C1NCC(c2cc(F)cc(F)c2)C1C(=O)Nc1cccc(F)c1F (racemic)
Response: 60

Request: Try this compound too: O=C1NCC(c2ccc(C(F)(F)F)cc2)C1C(=O)Nc1ccccc1Cl (centres unmarked)
Response: 60

Request: Try O=C1NCC(c2ccc(Cl)cc2)C1C(=O)Nc1ccccc1Cl (centres unmarked) next.
Response: 30

---

Test system: galium
Assay: Test C pre-/postemergence herbicide test
Type: in vivo, Galium aparine
Details: Preemergence, 62 g ai/ha; scale 0 to 100 (0 no effect, 100 complete control)
compounds and their reported Galium plant response rating
Number only, please.

Guide cases for Galium plant response rating, answers given:
Request: Find Galium plant response rating (galium) for the entry O=C1NCC(c2cccc(OC(F)F)c2)C1C(=O)Nc1cccc(F)c1F (stereo not drawn)
Response: 60

Request: Now the compound O=C1NCC(c2cccc(OC(F)F)c2)C1C(=O)Nc1ccccc1F (stereo not drawn)
Response: 0

Request: Another compound: O=C1NCC(c2ccc(C(F)(F)F)c(F)c2)C1C(=O)Nc1ccccc1F (racemic)
Response: 90

Request: Lookup O=C1NCC(c2cccc(Br)c2)C1C(=O)Nc1cccc(F)c1F (stereo not drawn)
Response: 0

Request: Another compound: O=C1NCC(c2ccc(C(F)(F)F)cc2)C1C(=O)Nc1ccccc1Cl (stereo not drawn)
Response: 80

Request: // query: O=C1NCC(c2ccc(C(F)(F)F)cc2)C1C(=O)Nc1ccc(F)c(F)c1F (stereo not drawn)
Response: 85

Further cases:
Request: Any idea what Galium plant response rating came out for O=C1NCC(c2cccc(C(F)(F)F)c2)C1C(=O)Nc1ccc(F)c(F)c1F (stereo not drawn) on galium?
Response: 80

Request: What do we get for O=C1NCC(c2cccc(C(F)(F)F)c2)C1C(=O)Nc1ccccc1Cl (racemic) ?
Response: 0

Request: Next compound: O=C1NCC(c2cccc(C(F)(F)F)c2)C1C(=O)Nc1ccc(F)cc1F (racemic)
Response: 0

---

Tested on: nutsedge, yellow
Test: Test C pre-/postemergence herbicide test
Format: in vivo, Cyperus esculentus
Settings: Preemergence, 62 g ai/ha; scale 0 to 100 (0 no effect, 100 complete control)
assayEndpoint: Nutsedge, Yellow plant response rating
Please reply with the number alone, leaving off any unit.

Request: Given the entry O=C1NCC(c2ccc(C(F)(F)F)nc2)C1C(=O)Nc1cccc(F)c1F (racemic) , report its measured Nutsedge, Yellow plant response rating.
Response: 0

***
Request: # Nutsedge, Yellow plant response rating lookup, item O=C1NCC(c2ccc(C(F)(F)F)nc2)C1C(=O)Nc1ccccc1F (racemic)
Response: 0

Request: What do we get for O=C1NCC(c2cc(F)cc(F)c2)C1C(=O)Nc1cccc(F)c1F (racemic) ?
Response: 0

Request: And what about the compound O=C1NCC(c2ccc(C(F)(F)F)cc2)C1C(=O)Nc1ccccc1Cl (stereo not shown) ?
Response: 0

Request: Moving on to the next compound: O=C1NCC(c2cccc(OC(F)F)c2)C1C(=O)Nc1ccccc1F (stereo not shown)
Response: 0

Request: What do you have for O=C1NCC(c2ccc(C(F)(F)F)c(F)c2)C1C(=O)Nc1cccc(F)c1F (racemic) ?
Response: 20

Request: Another: O=C(Nc1ccccc1F)C1C(=S)NCC1c1cccc(C(F)(F)F)c1 (stereo not shown)
Response: 0
